This collection of values is drawn from ChEMBL document CHEMBL1145396.

Assay: Toxicity assessed as hemolytic activity in human RBC
Type: cell-based
Conditions: erythrocyte
Square brackets hold non-standard residues; d marks the D form. Peptide text beside a SMILES is read from it. Orn = NCCC[C@H](N)C(=O)O
reported.metric: log10 of Activity (log10 of the value in µg/mL)
Each number you see is log10 of Activity, and the unit inside the log is µg/mL.

compound: CC(C)C[C@@H]1NC(=O)[C@H](CCCN)NC(=O)[C@H](C(C)C)NC(=O)[C@H](Cc2ccc(O)cc2)NC(=O)[C@H](CCC(N)=O)NC(=O)[C@H](CC(N)=O)NC(=O)[C@@H](Cc2ccccc2)NC(=O)[C@H](Cc2ccccc2)NC(=O)[C@@H]2CCCN2C(=O)[C@@H](Cc2ccccc2)NC1=O [TYROCIDINE A] (cyclo(F[dF]NQYV[Orn]L[dF]P))
log10 of Activity: 0.30
--
compound: CCCNC(=O)C[C@H]1NC(=O)[C@@H](CCCCN)NC(=O)[C@H](Cc2ccccc2)NC(=O)[C@@H]2CCCN2C(=O)[C@@H](Cc2ccccc2)NC(=O)[C@@H]2CCCN2C(=O)[C@H](CCCN)NC(=O)[C@H](C(C)C)NC(=O)[C@H](Cc2ccc(O)cc2)NC(=O)[C@H](Cc2ccc(F)cc2)NC1=O
log10 of Activity: 2.11
--
compound: CCCNC(=O)C[C@@H]1NC(=O)[C@@H](CCCNC(=N)N)NC(=O)[C@H](Cc2ccccc2)NC(=O)[C@@H]2CCCN2C(=O)[C@@H](Cc2ccccc2)NC(=O)[C@H](Cc2ccc(F)cc2)NC(=O)[C@H](CCCN)NC(=O)[C@H](C(C)C)NC(=O)[C@H](Cc2ccc(O)cc2)NC(=O)[C@H](CCCNC(=N)N)NC1=O
log10 of Activity: 0.90
--
compound: CCCNC(=O)C[C@@H]1NC(=O)[C@@H](Cc2ccccc2)NC(=O)[C@H](Cc2ccccc2)NC(=O)[C@@H]2CCCN2C(=O)[C@@H](Cc2ccccc2)NC(=O)CNC(=O)[C@H](CCCN)NC(=O)[C@H](C(C)C)NC(=O)[C@H](Cc2ccc(O)cc2)NC(=O)[C@H](CCCCN)NC1=O
log10 of Activity: 1.81
--
compound: CCCNC(=O)C[C@@H]1NC(=O)[C@@H](CCCCN)NC(=O)[C@H](Cc2ccccc2)NC(=O)[C@@H]2CCCN2C(=O)[C@@H](Cc2ccccc2)NC(=O)[C@H](Cc2ccc(O)cc2)NC(=O)[C@H](CCCN)NC(=O)[C@H](C(C)C)NC(=O)[C@H](Cc2ccc(O)cc2)NC(=O)[C@H](CCCCN)NC1=O
log10 of Activity: 2.11
--
compound: CCCNC(=O)C[C@@H]1NC(=O)[C@@H](CCCNC(=N)N)NC(=O)[C@H](Cc2ccccc2)NC(=O)[C@@H]2CCCN2C(=O)[C@@H](Cc2ccccc2)NC(=O)[C@H](Cc2ccc(F)cc2)NC(=O)[C@H](CCCN)NC(=O)[C@H](C(C)C)NC(=O)[C@H](Cc2ccc(O)cc2)NC(=O)[C@H](CO)NC1=O
log10 of Activity: 1.20

Consider the record given below.
query: Find the measured log10 of Activity of `CCCNC(=O)C[C@H]1NC(=O)[C@@H](CCCNC(=N)N)NC(=O)[C@H](Cc2ccccc2)NC(=O)[C@@H]2CCCN2C(=O)[C@@H](Cc2ccccc2)NC(=O)[C@@H]2CCCN2C(=O)[C@H](CCCN)NC(=O)[C@H](C(C)C)NC(=O)[C@H](Cc2ccc(O)cc2)NC(=O)[C@@H](C)NC1=O` and report it.
result: 2.71
